Each item that follows carries a reported IC50.
Tested on: RS4;11 cells
Experiment: Inhibition of proliferation of RS4;11 cells (CellTiter-Glo)
Type: cell-based
Details: Homo sapiens, 72 h, 3 days, read-out: Inhibitory activity IC50 (nM) for the proliferation of RS4;11 cells
Give me the value, and tack the unit on after it.

{"compound": "O=C(NS(=O)(=O)c1ccc(N[C@@H](CSc2ccccc2)C[C@H]2CCCN2CCO)c(S(=O)(=O)C(F)(F)F)c1)c1ccc(N2CCC([C@@H](O)c3ccccc3-c3ccc(Cl)cc3)CC2)cc1 [Example 2-2]", "IC50": "7 nM"}

Asked: Query: IC50; subject: O=C(NS(=O)(=O)c1ccc(N[C@@H](CSc2ccccc2)C[C@@H]2CCCN2)c(S(=O)(=O)C(F)(F)F)c1)c1ccc(N2CCC([C@@H](O)c3ccccc3-c3ccc(Cl)cc3)CC2)cc1 [Example 2-8]
Given back: 18 nM

Asked: Param item: O=C(NS(=O)(=O)c1ccc(N[C@@H](CSc2ccccc2)C[C@@H]2CCCN2CCO)c(S(=O)(=O)C(F)(F)F)c1)c1ccc(N2CCC([C@@H](O)c3ccccc3-c3ccc(Cl)cc3)CC2)cc1 [Example 2-9]
Given back: 1.8 nM

Asked: What do we get for O=C(NS(=O)(=O)c1ccc(N[C@@H](CSc2ccccc2)C[C@@H]2CCCN2CCO)c(S(=O)(=O)C(F)(F)F)c1)c1ccc(N2CCC([C@@H](O)c3ccccc3-c3ccc(C(F)(F)F)cc3)CC2)cc1 [Example 2-13] ?
Given back: 7 nM

Asked: Queued: CO[C@@H](c1ccccc1-c1ccc(Cl)cc1)C1CCN(c2ccc(C(=O)NS(=O)(=O)c3ccc(N[C@@H](CSc4ccccc4)C[C@H]4CCCN4)c(S(=O)(=O)C(F)(F)F)c3)cc2)CC1 [Example 2-3]
Given back: 58 nM

Asked: Cool, now CO[C@@H](c1ccccc1-c1ccc(Cl)cc1)C1CCN(c2ccc(C(=O)NS(=O)(=O)c3ccc(N[C@@H](CSc4ccccc4)C[C@H]4CCCN4CCO)c(S(=O)(=O)C(F)(F)F)c3)cc2)CC1 [Example 2-4]
Given back: 34 nM

Asked: Same question, O=C(NS(=O)(=O)c1ccc(N[C@@H](CSc2ccccc2)C[C@H]2CCCN2)c(S(=O)(=O)C(F)(F)F)c1)c1ccc(N2CCC([C@@H](O)c3ccccc3-c3ccc(Cl)cc3)CC2)cc1 [Example 2-1] this time
Given back: 23 nM

Asked: Lookup CN(CCO)CC[C@H](CSc1ccccc1)Nc1ccc(S(=O)(=O)NC(=O)c2ccc(N3CCC([C@@H](O)c4ccccc4-c4ccc(C(F)(F)F)cc4)CC3)cc2)cc1S(=O)(=O)C(F)(F)F [Example 2-10]
Given back: 1 nM

Asked: Try this compound next: O=C(NS(=O)(=O)c1ccc(N[C@@H](CSc2ccccc2)C[C@@H]2CCCN2CCCO)c(S(=O)(=O)C(F)(F)F)c1)c1ccc(N2CCC([C@@H](O)c3ccccc3-c3ccc(Cl)cc3)CC2)cc1 [Example 2-11]
Given back: 5 nM

Asked: Do the same for O=C(NS(=O)(=O)c1ccc(N[C@@H](CSc2ccccc2)C[C@H]2CCCN2CCCO)c(S(=O)(=O)C(F)(F)F)c1)c1ccc(N2CCC([C@@H](O)c3ccccc3-c3ccc(Cl)cc3)CC2)cc1 [Example 2-5] please
Given back: 9 nM
